assay: NCI Yeast Anticancer Drug Screen. Data for the rad50 strain (AID 155);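 also: 0% = growth of vehicle-only cultures of the same strain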; details: S. cerevisiae rad50 strain growth inhibition; at 50.0 µM (retest, dose inferred, filed as 5.0)
About 79,000 compounds went through this panel and 15% of them were active in at least one assay; those are over-represented in the sample as a whole. Active and inactive are the calls of the source. Rule as the data show it: active = growth inhibition above about 70%; inactive = the rest.
Result category, one only: T (active), F (inactive)

Task: How was CN(C)CCC(=O)c1ccc2c(ccc3ccccc32)c1 classified in this test?
Result: F

Task: How was O=S(=O)(Nc1nccs1)c1ccc(N=Cc2cn(Cc3ccccc3)c3ccccc23)cc1 classified in this test?
Result: F

Task: How was CN(C)c1ccccc1CN1CCCN(Cc2ccccc2N(C)C)C1 classified in this test?
Result: F

Task: How was CC(=O)Oc1cc(OC(C)=O)c2cc(Br)ccc2c1OC(C)=O classified in this test?
Result: F

Task: How was O=C1c2cccc3cc4ccccc4c(c23)C(=O)N1CCCNCCNCCCN1C(=O)c2cccc3cc4ccccc4c(c23)C1=O classified in this test?
Result: T

Task: How was CSC(=S)OC1CC(n2cnc3c(NC(=O)c4ccccc4)ncnc32)OC1CO[Si](C)(C)C(C)(C)C (centres undefined) classified in this test?
Result: F

Task: How was NC(=O)NCCCCC1NC(=S)N(c2ccccc2)C1=O (centres undefined) classified in this test?
Result: F

Task: How was CCCCOC(=O)c1ccc(O)c(OC)c1 classified in this test?
Result: F

Task: How was Cc1cccc(C)c1NC(=O)/C(Cl)=C(/Cl)C(=O)O classified in this test?
Result: T

Task: How was COC1OC(CBr)C(OC(c2ccccc2)(c2ccccc2)c2ccccc2)C(OC(c2ccccc2)(c2ccccc2)c2ccccc2)C1OC(c1ccccc1)(c1ccccc1)c1ccccc1 (centres undefined) classified in this test?
Result: F

Task: How was C/C(=N\NC(=S)Nc1ccc(N(C)C)cc1)c1ccccn1 classified in this test?
Result: F

Task: How was Cc1cc(-c2ccccc2)c(C)c(-c2ccccc2)c1-c1ccccc1 classified in this test?
Result: F

Task: How was FC(F)(F)c1ccccc1NC(=S)SCc1ccc2c(c1)OCO2 classified in this test?
Result: T

Task: How was O=C(Cc1ccccc1)NNc1nc(NNC(=O)c2ccncc2)nc(Nc2ccccc2)n1 classified in this test?
Result: F

Task: How was C=C1C(O)C2(O)OCC34C(CC5C(C)=CC(=O)C(O)C5(C)C23)OC(=O)C(OC(=O)C/C=C(\C)CCCCC)C14 (centres undefined) classified in this test?
Result: T

Task: How was CCCCCCCCCCCC(=O)C(=O)c1ccc(O)cc1O classified in this test?
Result: T

Task: How was CCc1cc2c(c3c1C(=O)CC3)C(C)(C)CCC2 classified in this test?
Result: T

Task: How was CCOC(=O)C1=NNC(C(=O)c2ccccc2)C1c1ccccc1 (centres undefined) classified in this test?
Result: F

Task: How was CN(Cc1cc(C(C)(C)C)cc(Br)c1O)Cc1cc(C(C)(C)C)cc(Br)c1O classified in this test?
Result: F

Task: How was COc1ccc2c(c1)nc1ccc(Cl)cc1[n+]2C classified in this test?
Result: F

Task: How was CC(O)(CO)CC(C)(O)CO (centres undefined) classified in this test?
Result: F

Task: How was COc1ccc2c(c1)CCCN2CCCCCCCCCN1CCCCC1 classified in this test?
Result: F

Task: How was CCCCCCNC(=S)N/N=C(\C)c1ccccn1 classified in this test?
Result: T

Task: How was COc1ccc2c(c1)Cc1ccccc1C2=O classified in this test?
Result: F

Task: How was O=[N+]([O-])c1cc(Cl)cc2c1nc(NCCO)c1ccccc12 classified in this test?
Result: T

Task: How was Cc1cccc2c1Oc1cc(Cl)ccc1C2NC(=O)CCN1CCN(CCO)CC1 (centres undefined) classified in this test?
Result: F

Task: How was Clc1ccccc1/C=C/c1ccccn1 classified in this test?
Result: F

Task: How was Clc1ccc(CN2COc3c(cc(Cl)c4cccnc34)C2)cc1Cl classified in this test?
Result: T

Task: How was CC(Cc1ccccc1)NNC(C)Cc1ccccc1 (centres undefined) classified in this test?
Result: T

Task: How was O=S(=O)(CC(Br)Br)c1ccccc1 classified in this test?
Result: T

Task: How was COc1ccc2c(C)c(N=C=S)c(=O)oc2c1 classified in this test?
Result: T

Task: How was O=C(CCl)OCC(=O)c1ccc(-c2ccccc2)cc1 classified in this test?
Result: T

Task: How was CC(=O)C(C(C)=O)C1C=CC=CC=C1 classified in this test?
Result: T

Task: How was Cc1cc(Cl)nc2ccc(Cc3ccc4nc(Cl)cc(C)c4c3)cc12 classified in this test?
Result: F

Task: How was CC(C)NCC=C=Nc1ccccc1 classified in this test?
Result: F

Task: How was CN(C)c1ccc(N=Nc2ccc3c4c(cccc24)-c2ccccc2-3)cc1 classified in this test?
Result: T

Task: How was CC(=O)OCc1cc2ccccc2nc1C(Br)(Br)Br classified in this test?
Result: T

Task: How was Cc1c2ccncc2c(C)c2c1[nH]c1ccc(OCCN(C)C)cc12 classified in this test?
Result: T

Task: How was Cc1ccc(/C=C2\CCCC(CN3CCCCC3)C2=O)cc1 (centres undefined) classified in this test?
Result: T

====

experiment: NCI Yeast Anticancer Drug Screen. Data for the cln2 rad14 strain (AID 165);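 also: 0% = growth equal to vehicle treated cultures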; conditions: S. cerevisiae cln2 rad14 strain, at 50.0 µM (retest, dose inferred, filed as 5.0), hits give high values
The panel holds about 79,000 compounds, 15% with a hit somewhere; the sample as a whole holds those more often.
I'd be grateful if you could share measured growth inhibition for these entries.
The reply should be a number in %, with the unit left off.

Measured growth inhibition, CN(C)CC(CN1CCCC1)C(=O)c1ccccc1 (configuration not stated) : 33

Measured growth inhibition, C=C(c1ccc2nc(NC(=O)OC)[nH]c2c1)c1cccs1 : 18

Measured growth inhibition, CSc1nc(=Nc2ccccc2)sn1-c1ccccc1 : 97

Measured growth inhibition, ON=C(CC(O)(C(F)(F)Cl)C(F)(F)Cl)CC(O)(C(F)(F)Cl)C(F)(F)Cl : 99

Measured growth inhibition, NCC(CS)C(=O)NC(CS)C(=O)NC(CS)C(=O)NCCNc1ccc(NCCNC(=O)C(CS)NC(=O)C(CS)NC(=O)C(CN)CS)c2c1C(=O)c1c(O)ccc(O)c1C2=O (configuration not stated) : 84

Measured growth inhibition, O=S(=O)(c1cc(Cl)ccc1Cl)N1CCc2ccccc2C1 : 15

Measured growth inhibition, Cc1n[n+]([O-])c(C)cc1[N+](=O)[O-] : 42

Measured growth inhibition, NC(CCl)=NCC1C2CC3CC(C2)CC1C3 (configuration not stated) : 99

Measured growth inhibition, CC(C)N1C(=O)c2ccccc2S1(Cl)c1ccccc1 (configuration not stated) : 2

Measured growth inhibition, O=C(O)C1(Cc2ccc3c(c2)CCC3)Cc2ccccc2C1 : 5

Measured growth inhibition, CCOC(=O)c1ccccc1NC(OCC)C(=O)c1ccccc1 (configuration not stated) (tested in a mixture with another compound) : 12

Measured growth inhibition, O=c1c(Cl)c(Cl)c(=O)c2sc3cc(Cl)ccc3[nH]c1=2 : 7

Measured growth inhibition, C=Cc1ccccc1C1(O)C=CC(OC)(OC)C=C1 : 31

Measured growth inhibition, CCOC(=O)C(=O)CC1=Nc2ccccc2SC(c2cccc(C)c2)C1 (configuration not stated) : 86

Measured growth inhibition, OC1CC2CCC(C1)N2CCCN1c2ccccc2Sc2ccc(Cl)cc21 (configuration not stated) : 74

Measured growth inhibition, CCOC(=O)N1c2ccc3ccccc3c2C=CC1C#N (configuration not stated) : 7

Measured growth inhibition, CC1CCC2(C)C(CC=C(C=O)C2(O)C=O)C12CO2 (configuration not stated) : 99

====

test: NCI Yeast Anticancer Drug Screen. Data for the rad50 strain (AID 155);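 also: 0% = growth of vehicle-only cultures of the same strain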; conditions: S. cerevisiae rad50 strain growth inhibition; at 50.0 µM (retest, dose inferred, filed as 5.0)
The panel holds about 79,000 compounds, 15% with a hit somewhere; the sample as a whole holds those more often. Calls of active or inactive are those of the source. No stated cut-off is given here; in the data, active means growth inhibition above about 70%; inactive means the rest.
Result category, one only: yes (active), no (inactive)

Task: How was F[Si](c1ccccc1)(c1ccccc1)c1ccccc1 classified in this test?
Result: yes

Task: How was FC(F)(F)c1ccc(Nc2ccc(C(F)(F)F)cc2)cc1 classified in this test?
Result: yes

Task: How was CC(C)(C)OC(=O)Nc1cccc(Cl)c1 classified in this test?
Result: yes

Task: How was O=C(O)c1ccc(Br)cc1C(=O)c1ccccc1 classified in this test?
Result: no

====

experiment: NCI Yeast Anticancer Drug Screen. Data for the mec2-1 strain (AID 157); conditions: S. cerevisiae mec2-1 strain, at 50.0 µM (retest, dose inferred, filed as 5.0)
The panel holds about 79,000 compounds, 15% with a hit somewhere; the sample as a whole holds those more often. Calls of active or inactive are those of the source. Rule as the data show it: active = growth inhibition above about 70%; inactive = the rest.
Result category, one only: true (1) = active, false (0) = inactive

Task: How was c1cc[c]([Ge]([O]c2cccc3cccnc23)([c]2ccccc2)[c]2ccccc2)cc1 classified in this test?
Result: false (0)

Task: How was C/C(=N\OC(=O)c1ccccc1)[N+](=O)[O-] classified in this test?
Result: true (1)

Task: How was COc1ccc(/C(Cl)=C(\C=O)c2ccc(Cl)cc2)cc1 classified in this test?
Result: false (0)
